# assay name: qHTS of pediatric cancer cell lines to identify multiple opportunities for drug repurposing: Confirmatory screen for Rh18 cells (AID 1347125);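 further: cells exposed to compound for 48 h; nearly all actives have a fitted effect of over 55% in size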; further: potency means the concentration at half of the fitted maximal effect
# measurement setup: Rh18 rhabdomyosarcoma cells, viability; series mostly up to 45.9 µM
Results filed as inconclusive are left out. Active and inactive are the calls of the source. The call rests on the fitted dose curve; in most records, active means well fitted cell-killing curve with a large enough effect; inconclusive means small, poorly fitted or top-dose-only effect, or effect the other way; inactive means flat fitted curve, though single readings scatter.
measurement name: Potency

Some entries whose results are on file:
- molecule: "CCCCn1c(=O)n(Cc2ccccc2F)c(=O)c2[nH]c(Cc3ccc(NC(C)=O)cc3)nc21"
  result: "inactive"
- molecule: "C[C@@]1(c2cc(-c3cncnc3)c(F)cc2F)CCSC(N)=N1"
  result: "inactive"
- molecule: "CNC(=O)[C@H](CC1=CN=C2C=CCC=C12)NC(=O)[C@@H](CC(=O)NO)CC(C)C"
  result: "1470 nM (active)"
- molecule: "CC1C(=O)OC2C(O)C34C5CC(C(C)(C)C)C36C(OC(=O)C6O)OC4(C(=O)O5)C12O (centres undefined)"
  result: "inactive"

Please supply the value of reported Potency for the item `CC(C)(C)c1[nH]cnc1C=c1[nH]c(=O)c(=Cc2ccccc2)[nH]c1=O`
16 nM (active)

Please supply the value of reported Potency for the item `C=C1[C@H](n2cnc3c(=O)[nH]c(N)nc32)C[C@H](O)[C@H]1CO`
inactive

Please supply the value of reported Potency for the item `CC(=O)N1CCN(c2ccc(OCc3nn(C)c(C)c3-c3cccc4c(CCCOc5cc(C)c(Cl)c(C)c5)c(C(=O)O)n(Cc5cccnc5)c34)cc2)CC1`
inactive

Please supply the value of reported Potency for the item `N#CC(=C1Nc2ccccc2S1)c1ccnc(OCc2ccc(CN3CCOCC3)cc2)n1`
inactive

Please supply the value of reported Potency for the item `CSc1cccc(Nc2ncc3cc(-c4c(Cl)cccc4Cl)c(=O)n(C)c3n2)c1`
3290 nM (active)

====

# assay name: Quantitative High-Throughput drug screen in 47 multiple myeloma cell lines against the NCATS MIPE library collection: MM1S_ATCC cell viability assay (AID 1918980); further: potency means the concentration at half of the fitted maximal effect; nearly all actives have a fitted effect of over 45% in size
# measurement setup: MM1S myeloma viability, CellTiter-Glo ATP luminescence, 48 h; series mostly up to 45.8 µM
Records with an inconclusive call do not appear. Calls of active or inactive are those of the source. The call rests on the fitted dose curve; in most records, active means well fitted cell-killing curve with a large enough effect; inconclusive means small, poorly fitted or top-dose-only effect, or effect the other way; inactive means no such curve, though single readings can be large or run the other way.
Reported Potency values are given for each entry in this list.

Some entries whose results are on file:
- structure string: "COc1c(C)cnc(Cn2cnc3c(Cl)nc(N)nc32)c1C"
  result: "0.332 µM (active)"
- structure string: "COc1ccc2nc3cc(Cl)ccc3c(Nc3cc(CN4CCCC4)c(O)c(CN4CCCC4)c3)c2n1"
  result: "20.9 µM (active)"

Could you now look at the following compound, please?
Please supply the value of reported Potency for the item `COc1ccc(-c2cc(=O)c3c(O)cc(O[C@@H]4O[C@H](CO[C@@H]5O[C@@H](C)[C@H](O)[C@@H](O)[C@@H]5O)[C@@H](O)[C@H](O)[C@@H]4O)cc3o2)cc1O`
18.7 µM (active)

====

# assay name: Quantitative High-Throughput drug screen in 47 multiple myeloma cell lines against the NCATS MIPE library collection: MM1R_ATCC cell viability assay (AID 1918981); further: potency means the concentration at half of the fitted maximal effect; nearly all actives have a fitted effect of over 35% in size
# measurement setup: MM1R multiple myeloma cells, CellTiter-Glo viability, 48 h; series mostly up to 45.8 µM
Results filed as inconclusive are left out. Active and inactive are the calls of the source. The call rests on the fitted dose curve; in most records, active means well fitted cell-killing curve with a large enough effect; inconclusive means small, poorly fitted or top-dose-only effect, or effect the other way; inactive means no such curve, though single readings can be large or run the other way.
Reported Potency values are given for each entry in this list.

Some entries whose results are on file:
- structure string: "Cc1csc(-c2nnc(Nc3ccc(Oc4ncccc4-c4ccnc(N)n4)cc3)c3ccccc23)c1"
  result: "20.9 µM (active)"
- structure string: "CCC(=O)N1CCN(c2ccc(-n3c(=O)ccc4cnc5ccc(-c6cnc7ccccc7c6)cc5c43)cc2C(F)(F)F)CC1"
  result: "0.0372 µM (active)"
- structure string: "CO[C@H]1/C=C\\O[C@@]2(C)Oc3c(C)c(O)c4c(O)c(c(C=NN5CCN(C6CCCC6)CC5)c(O)c4c3C2=O)NC(=O)C(C)=CC=C[C@H](C)[C@H](O)[C@@H](C)[C@@H](O)[C@@H](C)[C@H](OC(C)=O)[C@H]1C"
  result: "0.187 µM (active)"

Could you now look at the following molecule, please?
Please supply the value of reported Potency for the item `CCC(=C(c1ccc(O)cc1)c1ccc(OCCNC)cc1)c1ccccc1`
23.5 µM (active)

====

# assay name: Drug repurposing screens with cells derived from glioblastoma tumor samples (AID 1345199); further: potency means the concentration at half of the fitted maximal effect; nearly all actives have a fitted effect of over 40% in size
# measurement setup: GBM patient neurospheres viability, ATP luminescence, 48 h; tumour line A
Results filed as inconclusive are left out. The source made the active and inactive calls. Calls follow the shape of the dose curve; as a rule, active = well fitted inhibition curve with a large enough effect; inconclusive = small, poorly fitted or top-dose-only effect; inactive = flat fitted curve, though single readings scatter.
Reported Potency values are given for each entry in this list.

- compound: "Clc1ccc(COC(Cn2ccnc2)c2ccc(Cl)cc2Cl)c(Cl)c1 (configuration not stated)"
  Potency: "5.62 µM (active)"

Please supply the value of reported Potency for the item O=C(CCCN1CCN(c2ccc(F)cc2)CC1)NC1c2ccccc2CSc2ccccc21 (configuration not stated)
3.98 µM (active)

Please supply the value of reported Potency for the item `COc1cc2c(cc1OC)CC(=O)N(CCCN(C)C[C@H]1Cc3cc(OC)c(OC)cc31)CC2`
11.2 µM (active)

Please supply the value of reported Potency for the item CN1CC(=O)N2C(Cc3c([nH]c4ccccc34)[C@H]2c2ccc3c(c2)OCO3)C1=O (some centres not stated)
11.2 µM (active)

Please supply the value of reported Potency for the item `CCC(=O)OCC(=O)[C@@]1(OC(=O)CC)[C@@H](C)C[C@@H]2[C@H]3CCC4=CC(=O)C=C[C@]4(C)[C@@]3(F)[C@@H](O)C[C@@]21C`
11.2 µM (active)

Please supply the value of reported Potency for the item `CC(C)CN(C[C@@H](O)[C@H](Cc1ccccc1)NC(=O)O[C@H]1CO[C@H]2OCC[C@H]21)S(=O)(=O)c1ccc(N)cc1`
17.8 µM (active)

Please supply the value of reported Potency for the item `Fc1ccc(C(c2ccc(F)cc2)N2CCN(CC=Cc3ccccc3)CC2)cc1`
2.82 µM (active)

====

# assay name: Cell Proliferation Assay against the HBL1 Cell Line (AID 651646);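 further: cells exposed to compound for 48 h before reading; 100% = DMSO and 0% = 9.2 µM bortezomib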
# measurement setup: HBL1 DLBCL cells; at 46.1 µM (top of the series)
hey, just use true (1) if measured viability, percent of control is less than 30%, otherwise false (0)

- structure string: "CC(C)(C)c1[nH]cnc1C=c1[nH]c(=O)c(=Cc2ccccc2)[nH]c1=O"
  cat: "true (1)"

Here's the next entry for you.
Confirm or reject: viability, percent of control of `COc1nc(C)cnc1NS(=O)(=O)c1cccnc1-c1ccc(-c2nnco2)cc1` lies strictly below 30%
false (0)

====

# Test system: CP297
# assay name: qHTS profiling for inhibitors of Plasmodium falciparum proliferation (AID 504749); further: nearly all actives have a fitted effect of over 60% in size
# measurement setup: P. falciparum in erythrocytes, SYBR Green DNA, 72 h; series mostly up to 28.7 µM
Inconclusive results are not listed. Calls of active or inactive are those of the source. Calls follow the shape of the dose curve; as a rule, active = well fitted inhibition curve with a large enough effect; inconclusive = small, poorly fitted or top-dose-only effect; inactive = flat fitted curve, though single readings scatter.
Please state which outcome applies, choosing from active, inactive

- compound: "N#CC(c1ccc(Cl)cc1)c1c(Cl)cc(-n2ncc(=O)[nH]c2=O)cc1Cl (stereo not given)"
  cat: "inactive"
- compound: "Clc1ccc(COC(Cn2ccnc2)c2ccc(Cl)cc2Cl)c(Cl)c1 (stereo not given)"
  cat: "active"
- compound: "NS(=O)(=O)c1cc(Cl)c(Cl)c(S(N)(=O)=O)c1"
  cat: "inactive"
- compound: "COc1cc2c(cc1OC)CC(=O)N(CCCN(C)C[C@H]1Cc3cc(OC)c(OC)cc31)CC2"
  cat: "inactive"

Here's the next entry for you.
Give the logged outcome of this assay for the following compound: `COc1c(C)c2c(c(O)c1CC=C(C)CCC(=O)OCCN1CCOCC1)C(=O)OC2`
active

====

Reported Z-AUC values are given for each entry in this list.
# assay name: qHTS drug screen for cell cycle checkpoint inhibitors in PARPi-resistant BRCA-mutant ovarian cancer cell lines. (AID 1963452)
# measurement setup: PEO1/OlaR viability, CellTiter-Glo luminescence, 96 h; stronger effect = lower value
The source made the active and inactive calls. The call rests on the fitted dose curve.

Please supply the value of reported Z-AUC for the item CC1CNc2c(cccc2S(=O)(=O)N[C@@H](CCCN=C(N)N)C(=O)N2CC[C@@H](C)C[C@@H]2C(=O)O)C1 (stereo partly specified)
1.14 (inactive)

Please supply the value of reported Z-AUC for the item `CCc1cc(-c2n[nH]c(C)c2-c2ccc3c(c2)OCCO3)c(O)cc1O`
0.644 (inactive)

Please supply the value of reported Z-AUC for the item `N#Cc1c(N(CC(=O)O)CC(=O)O)sc(C(=O)O)c1CC(=O)O`
0.439 (inactive)

Please supply the value of reported Z-AUC for the item `COc1cc2nccc(Oc3ccc(NC(=O)Nc4cc(C)on4)c(Cl)c3)c2cc1OC`
-0.11 (inactive)

Please supply the value of reported Z-AUC for the item `O=C1CCCC(=O)C1C(=O)c1ccc(C(F)(F)F)cc1[N+](=O)[O-]`
0.835 (inactive)

Please supply the value of reported Z-AUC for the item `CC1(COc2ccc3c(c2)ncn3-c2ccc3cccc(N4CCC(N)CC4)c3n2)COC1`
0.496 (inactive)

Please supply the value of reported Z-AUC for the item CN1c2ccccc2C(=O)N2CCc3c([nH]c4ccccc34)C21 (stereo unspecified)
0.807 (inactive)

Please supply the value of reported Z-AUC for the item `CCOC(=O)N1c2ccc(C(F)(F)F)cc2[C@@H](N(Cc2cc(C(F)(F)F)cc(C(F)(F)F)c2)C(=O)OC)C[C@H]1CC`
-1 (inactive)

Please supply the value of reported Z-AUC for the item `COc1ccc(-c2oc3c(CC=C(C)C)c(O)cc(O)c3c(=O)c2O)cc1`
0.707 (inactive)

Please supply the value of reported Z-AUC for the item `NS(=O)(=O)c1ccc(Nc2nc(OCC3CCCCC3)c3[nH]cnc3n2)cc1`
-1.43 (inactive)

Please supply the value of reported Z-AUC for the item `COc1cc([C@@H]2c3cc4c(cc3[C@@H](O[C@@H]3O[C@@H]5CO[C@@H](C)O[C@@H]5[C@H](O)[C@@H]3O)[C@H]3COC(=O)[C@H]23)OCO4)cc(OC)c1O`
-0.699 (inactive)

Please supply the value of reported Z-AUC for the item `CCCCCCCCCCCCCCCC(=O)O[C@H]1[C@@H](O)[C@@H](O)[C@@H]([C@H](NC(=O)[C@@H]2C[C@@H](CCC)CN2C)[C@H](C)Cl)O[C@@H]1SC`
1.31 (inactive)

Please supply the value of reported Z-AUC for the item `COc1cc2ncnc(Nc3cc(Br)c(O)c(Br)c3)c2cc1OC`
-1.45 (inactive)

Please supply the value of reported Z-AUC for the item Cc1cc2nc3c(=O)[nH]c(=O)nc-3n(CC(O)C(O)C(O)CO)c2cc1C (stereo unspecified)
-0.035 (inactive)

Please supply the value of reported Z-AUC for the item Clc1ccc(COC(Cn2ccnc2)c2ccc(Cl)cc2Cl)c(Cl)c1 (stereo unspecified)
-0.245 (inactive)

Please supply the value of reported Z-AUC for the item `CC1CCN(c2cc(N3CCN(C)CC3)ccc2NC(=O)c2cc(C#N)c[nH]2)CC1`
-1.13 (inactive)

Please supply the value of reported Z-AUC for the item COc1ccnc(CS(=O)c2nc3ccc(OC(F)F)cc3[nH]2)c1OC (stereo unspecified)
1.71 (inactive)

Please supply the value of reported Z-AUC for the item `CC(C)(C)c1nc(-c2cccc(NS(=O)(=O)c3c(F)cccc3F)c2F)c(-c2ccnc(N)n2)s1`
1.26 (inactive)

Please supply the value of reported Z-AUC for the item `CC(=O)Nc1cccc(-n2c(=O)n(C3CC3)c(=O)c3c(Nc4ccc(I)cc4F)n(C)c(=O)c(C)c32)c1`
-0.972 (inactive)

Please supply the value of reported Z-AUC for the item `NC(=O)c1ccc(N(C(N)=O)c2c(F)cccc2F)nc1-c1ccc(F)cc1F`
-0.305 (inactive)
